Recorded Cmax by entry
test.description: Cmax in Sprague-Dawley rat at 3 mg/kg, po measured upto 24 hrs
Type: ADME, organism-based
condition.label: in vivo
Note: unit µM is implicit; provide only the numeric part.

| molecular.string | Cmax [µM] |
| --- | --- |
| COc1ncc(Cl)cc1S(=O)(=O)Nc1ccc(F)c(-c2ccc3c(-c4ncc[nH]4)n[nH]c3c2F)c1F | 0.62 |

Quote Cmax reported for `CNC(=O)c1ncn2cc(-c3c(F)ccc(NS(=O)(=O)c4cc(Cl)cnc4OC)c3F)ncc12` please.
10.1

Specify reported Cmax for the molecule shown: `CNC(=O)c1ncn2cc(-c3c(F)ccc([N-]S(=O)(=O)c4cc(Cl)cnc4OC)c3F)ncc12.[K+]`
40

Note down Cmax recorded for `CNC(=O)c1ncn2cc(-c3c(F)ccc(NS(=O)(=O)c4cc(Cl)cnc4OC)c3F)ccc12`
20.6

# return recorded Cmax for input `CNC(=O)c1n[nH]c2c(F)c(-c3c(F)ccc(NS(=O)(=O)c4cc(Cl)cnc4OC)c3F)ccc12`
10.4

Please supply the value of reported Cmax for the item `COc1ncc(Cl)cc1S(=O)(=O)Nc1ccc(F)c(-c2ccc3c(-c4ncc[nH]4)ncn3c2)c1F`
14.3

In one line, give reported Cmax of the entry `CNC(=O)c1ncn2c1CC[C@H](c1c(F)ccc(NS(=O)(=O)c3cc(F)cnc3OC)c1F)C2` .
14.2

----------
test.description: Volume of distribution at steady state in Sprague-Dawley rat at 1 mg/kg, iv measured upto 24 hrs
Format: ADME, organism-based
condition.label: in vivo, read-out: Vdss
Listing of recorded Vd by entry.
Entry rule: numbers only, all in L/kg.

| molecular.string | value.units | Vd |
| --- | --- | --- |
| CNC(=O)c1n[nH]c2c(F)c(-c3c(F)ccc(NS(=O)(=O)c4cc(Cl)cnc4OC)c3F)ccc12 | L/kg | 0.11 |

Tell me its Vd given `CNC(=O)c1ncn2cc(-c3c(F)ccc(NS(=O)(=O)c4cc(Cl)cnc4OC)c3F)ncc12` as the entry.
0.093

Tell me measured Vd for `COc1ncc(Cl)cc1S(=O)(=O)Nc1ccc(F)c(-c2ccc3c(-c4ncc[nH]4)n[nH]c3c2F)c1F` please.
0.09

Give Vd for the following compound: `CNC(=O)c1ncn2cc(-c3c(F)ccc(NS(=O)(=O)c4cc(Cl)cnc4OC)c3F)ccc12`
0.1

Specify reported Vd for the compound shown: `COc1ncc(Cl)cc1S(=O)(=O)Nc1ccc(F)c(-c2ccc3c(-c4ncc[nH]4)ncn3c2)c1F`
0.1

State, in one line, measured Vd of `CNC(=O)c1ncn2c1CC[C@H](c1c(F)ccc(NS(=O)(=O)c3cc(F)cnc3OC)c1F)C2`
0.19

----------
test.description: Intrinsic clearance in rat hepatocytes assessed per 10^4 cells at 1 uM measured upto 120 mins by UPLC-MS/MS analysis
Type: ADME, cell-based, Hepatocyte
condition.label: 2 h
parameter: CLH (µL/min)
Please reply with the bare figure in µL/min and do not write the unit itself.

Answered examples (6):
| molecular.string | value.units | CLH |
| --- | --- | --- |
| CNC(=O)c1ncn2nc(-c3c(F)ccc(NS(=O)(=O)c4cc(Cl)cnc4OC)c3F)ccc12 | µL/min | 5.9 |
| COc1ncc(Cl)cc1S(=O)(=O)Nc1ccc(F)c(-c2ccc3c(-c4ncc[nH]4)n[nH]c3c2F)c1F | µL/min | 8.2 |
| COc1ncc(Cl)cc1S(=O)(=O)Nc1ccc(F)c(-c2ccc3c(-c4ncc[nH]4)ncn3c2)c1F | µL/min | 15 |
| CNC(=O)c1ncn2c1CC[C@H](c1c(F)ccc(NS(=O)(=O)c3cc(F)cnc3OC)c1F)C2 | µL/min | 13 |
| CNC(=O)c1n[nH]c2c(F)c(-c3c(F)ccc(NS(=O)(=O)c4cc(Cl)cnc4OC)c3F)ccc12 | µL/min | 11 |
| CNC(=O)c1ncn2cc(-c3c(F)ccc(NS(=O)(=O)c4cc(Cl)cnc4OC)c3F)ncc12 | µL/min | 3.5 |

Given `CNC(=O)c1ncn2cc(-c3c(F)ccc(NS(=O)(=O)c4cc(Cl)cnc4OC)c3F)ccc12` , respond with its CLH.
9.8

----------
test.description: Apparent permeability across apical to basolateral in human Caco-2 cells at 5 uM measured after 120 mins by UPLC-MS/MS analysis
parameter: Papp A→B at 2 h, 5 µM (×10⁻⁶ cm/s)
The response must be a number in ×10⁻⁶ cm/s with no trailing unit.

Supply Papp A→B at 2 h, 5 µM value. Item: `CNC(=O)c1ncn2cc(-c3c(F)ccc(NS(=O)(=O)c4cc(Cl)cnc4OC)c3F)ncc12`
9.7

----------
test.description: Half-life in Sprague-Dawley rat at 1 mg/kg, iv measured upto 24 hrs
Type: ADME, organism-based
condition.label: in vivo
Each item that follows carries a reported half-life.
Dear colleague, please return just the value in h, with no unit written.

| molecular.string | number |
| --- | --- |
| COc1ncc(Cl)cc1S(=O)(=O)Nc1ccc(F)c(-c2ccc3c(-c4ncc[nH]4)ncn3c2)c1F | 2.4 |
| CNC(=O)c1n[nH]c2c(F)c(-c3c(F)ccc(NS(=O)(=O)c4cc(Cl)cnc4OC)c3F)ccc12 | 8.9 |
| CNC(=O)c1ncn2cc(-c3c(F)ccc(NS(=O)(=O)c4cc(Cl)cnc4OC)c3F)ncc12 | 6.3 |
| CNC(=O)c1ncn2cc(-c3c(F)ccc(NS(=O)(=O)c4cc(Cl)cnc4OC)c3F)ccc12 | 4.3 |
| COc1ncc(Cl)cc1S(=O)(=O)Nc1ccc(F)c(-c2ccc3c(-c4ncc[nH]4)n[nH]c3c2F)c1F | 3.8 |

Next compound, half-life to be filled in.
Give recorded half-life. `CNC(=O)c1ncn2c1CC[C@H](c1c(F)ccc(NS(=O)(=O)c3cc(F)cnc3OC)c1F)C2`
0.9

----------
target.or.test.system: eIF-2-alpha kinase GCN2 (Homo sapiens)
Sequence (Q9P2K8 whole entry): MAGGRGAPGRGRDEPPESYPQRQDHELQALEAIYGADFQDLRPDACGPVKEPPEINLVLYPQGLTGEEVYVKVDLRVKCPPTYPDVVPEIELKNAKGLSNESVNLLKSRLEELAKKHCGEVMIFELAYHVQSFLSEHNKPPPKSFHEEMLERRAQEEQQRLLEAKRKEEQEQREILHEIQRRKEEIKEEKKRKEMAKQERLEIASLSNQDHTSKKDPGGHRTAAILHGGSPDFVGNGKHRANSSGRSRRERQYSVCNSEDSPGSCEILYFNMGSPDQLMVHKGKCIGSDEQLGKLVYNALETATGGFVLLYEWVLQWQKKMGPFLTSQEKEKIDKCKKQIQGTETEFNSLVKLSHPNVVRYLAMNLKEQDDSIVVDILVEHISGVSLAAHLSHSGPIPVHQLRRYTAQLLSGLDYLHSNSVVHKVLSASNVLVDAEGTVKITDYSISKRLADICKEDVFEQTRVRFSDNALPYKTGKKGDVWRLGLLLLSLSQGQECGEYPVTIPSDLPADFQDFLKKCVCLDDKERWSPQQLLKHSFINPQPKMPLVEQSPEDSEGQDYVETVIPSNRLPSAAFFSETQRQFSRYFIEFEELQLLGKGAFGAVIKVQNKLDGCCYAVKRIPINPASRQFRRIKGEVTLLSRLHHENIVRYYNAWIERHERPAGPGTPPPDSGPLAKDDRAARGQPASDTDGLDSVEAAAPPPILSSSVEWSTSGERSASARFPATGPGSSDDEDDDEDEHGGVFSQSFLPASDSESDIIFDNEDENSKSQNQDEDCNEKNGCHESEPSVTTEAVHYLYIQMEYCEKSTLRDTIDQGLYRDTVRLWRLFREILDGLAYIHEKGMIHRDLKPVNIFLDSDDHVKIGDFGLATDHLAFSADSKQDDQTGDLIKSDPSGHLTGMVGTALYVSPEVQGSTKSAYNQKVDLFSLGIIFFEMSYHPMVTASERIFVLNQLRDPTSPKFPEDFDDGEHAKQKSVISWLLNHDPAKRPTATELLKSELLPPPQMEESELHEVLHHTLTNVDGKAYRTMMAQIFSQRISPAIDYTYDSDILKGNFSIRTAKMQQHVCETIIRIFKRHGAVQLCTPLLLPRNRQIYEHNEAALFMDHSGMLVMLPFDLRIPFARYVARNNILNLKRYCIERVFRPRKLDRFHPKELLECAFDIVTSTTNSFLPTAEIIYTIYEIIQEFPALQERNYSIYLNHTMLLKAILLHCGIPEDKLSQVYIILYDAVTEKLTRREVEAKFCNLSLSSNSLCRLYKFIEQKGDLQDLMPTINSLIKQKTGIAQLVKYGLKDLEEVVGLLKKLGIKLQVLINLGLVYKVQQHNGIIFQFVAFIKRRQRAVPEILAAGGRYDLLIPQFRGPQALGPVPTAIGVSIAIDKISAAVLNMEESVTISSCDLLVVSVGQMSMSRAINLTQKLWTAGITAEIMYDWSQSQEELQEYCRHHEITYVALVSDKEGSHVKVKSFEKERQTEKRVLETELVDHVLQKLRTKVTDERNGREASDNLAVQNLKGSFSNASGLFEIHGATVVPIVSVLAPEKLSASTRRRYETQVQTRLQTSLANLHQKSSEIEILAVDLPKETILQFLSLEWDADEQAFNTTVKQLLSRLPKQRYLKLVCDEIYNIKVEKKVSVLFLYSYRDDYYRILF
test.description: Activation of GCN2 in HEK293 cells transfected with ATF4 response element preincubated for 30 mins followed by halofuginone addition and measured after 6 hrs by One-Glo reagent based plate reader assay
parameter: pEC50
Scale note: pEC50 = -log10(concentration in M).

Write down pEC50 measured for item `CNC(=O)c1ncn2c1CC[C@H](c1c(F)ccc(NS(=O)(=O)c3cc(Cl)cnc3OC)c1F)C2`
6.62

----------
target.or.test.system: Phosphatidylinositol 4-phosphate 3-kinase C2 domain-containing subunit beta (Homo sapiens, UniProt O00750)
Sequence (O00750 whole entry, the tested form may be a part): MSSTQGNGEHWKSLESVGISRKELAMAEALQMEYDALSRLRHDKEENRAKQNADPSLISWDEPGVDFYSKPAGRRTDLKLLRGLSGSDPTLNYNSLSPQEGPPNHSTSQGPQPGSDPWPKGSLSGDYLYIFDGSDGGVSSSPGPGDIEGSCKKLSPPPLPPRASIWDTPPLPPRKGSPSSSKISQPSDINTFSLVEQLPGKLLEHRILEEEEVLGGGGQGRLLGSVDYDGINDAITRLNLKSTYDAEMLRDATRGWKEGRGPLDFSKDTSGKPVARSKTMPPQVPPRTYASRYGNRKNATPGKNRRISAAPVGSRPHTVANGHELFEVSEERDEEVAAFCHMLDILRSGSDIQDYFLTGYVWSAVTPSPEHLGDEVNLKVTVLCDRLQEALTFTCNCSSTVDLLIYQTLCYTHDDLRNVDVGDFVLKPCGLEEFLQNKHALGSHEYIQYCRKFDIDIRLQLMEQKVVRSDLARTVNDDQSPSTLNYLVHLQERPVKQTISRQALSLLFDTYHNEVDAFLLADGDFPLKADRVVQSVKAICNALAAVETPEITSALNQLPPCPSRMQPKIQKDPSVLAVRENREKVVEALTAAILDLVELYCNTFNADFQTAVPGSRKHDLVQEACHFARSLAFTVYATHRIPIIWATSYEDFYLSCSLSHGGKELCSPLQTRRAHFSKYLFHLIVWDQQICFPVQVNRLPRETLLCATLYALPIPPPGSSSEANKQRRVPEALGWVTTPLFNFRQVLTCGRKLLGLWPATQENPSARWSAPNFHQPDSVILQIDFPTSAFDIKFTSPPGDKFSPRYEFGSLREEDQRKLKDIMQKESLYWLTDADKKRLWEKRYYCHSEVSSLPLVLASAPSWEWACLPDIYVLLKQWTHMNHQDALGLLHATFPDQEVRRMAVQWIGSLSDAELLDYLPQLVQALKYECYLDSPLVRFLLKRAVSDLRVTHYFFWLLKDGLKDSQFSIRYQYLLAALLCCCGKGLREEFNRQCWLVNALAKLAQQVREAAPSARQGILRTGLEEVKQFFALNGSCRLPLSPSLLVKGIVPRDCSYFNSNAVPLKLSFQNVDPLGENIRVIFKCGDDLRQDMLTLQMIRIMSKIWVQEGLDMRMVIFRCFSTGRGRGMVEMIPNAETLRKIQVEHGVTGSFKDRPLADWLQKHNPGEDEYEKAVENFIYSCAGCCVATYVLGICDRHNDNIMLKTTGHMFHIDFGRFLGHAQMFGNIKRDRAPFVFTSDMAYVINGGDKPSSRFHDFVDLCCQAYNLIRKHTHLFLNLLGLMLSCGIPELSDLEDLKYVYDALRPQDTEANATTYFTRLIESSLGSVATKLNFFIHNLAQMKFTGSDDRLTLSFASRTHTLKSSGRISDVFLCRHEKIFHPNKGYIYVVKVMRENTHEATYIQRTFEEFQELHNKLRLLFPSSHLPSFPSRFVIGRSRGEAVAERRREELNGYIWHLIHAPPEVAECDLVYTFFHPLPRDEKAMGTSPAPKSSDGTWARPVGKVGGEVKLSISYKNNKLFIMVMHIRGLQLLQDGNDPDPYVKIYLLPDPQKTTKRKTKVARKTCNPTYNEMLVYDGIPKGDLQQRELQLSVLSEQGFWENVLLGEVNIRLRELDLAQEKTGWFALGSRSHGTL
test.description: Inhibition of PIK3C2B in human MOLM16 cells
parameter: IC50 (µM)
Reply with just the number (in µM).

Kindly indicate its recorded IC50. Item: `CNC(=O)c1ncn2cc(-c3c(F)ccc(NS(=O)(=O)c4cc(Cl)cnc4OC)c3F)ncc12`
3.4

----------
test.description: physchem
condition.label: FaSSIF
Description: Thermodynamic solubility in FaSSIF at 1 mg incubated for 24 hrs by UPLC-MS/MS analysis
parameter: solubility thermodynamic at 24 h
Report the figure along with its unit, number first.

Tell me its solubility thermodynamic at 24 h given `CNC(=O)c1ncn2cc(-c3c(F)ccc(NS(=O)(=O)c4cc(Cl)cnc4OC)c3F)ncc12` as the entry.
1.8 µM

----------
test.description: Protein binding in HEK293 cells assessed as free fraction
Type: ADME, cell-based
condition.label: human
parameter: fraction unbound
No unit in the answer, only the number.

| molecular.string | fraction unbound |
| --- | --- |
| CNC(=O)c1n[nH]c2c(F)c(-c3c(F)ccc(NS(=O)(=O)c4cc(Cl)cnc4OC)c3F)ccc12 | 0.03 |
| COc1ncc(Cl)cc1S(=O)(=O)Nc1ccc(F)c(-c2ccc3c(-c4ncc[nH]4)ncn3c2)c1F | 0.1 |
| CNC(=O)c1ncn2cc(-c3c(F)ccc(NS(=O)(=O)c4cc(Cl)cnc4OC)c3F)ncc12 | 0.35 |
| CNC(=O)c1ncn2nc(-c3c(F)ccc(NS(=O)(=O)c4cc(Cl)cnc4OC)c3F)ccc12 | 0.32 |

# return recorded fraction unbound for input `CNC(=O)c1ncn2c1CC[C@H](c1c(F)ccc(NS(=O)(=O)c3cc(Cl)cnc3OC)c1F)C2`
0.45

// Input: `CNC(=O)c1ncn2c1CC[C@H](c1c(F)ccc(NS(=O)(=O)c3cc(F)cnc3OC)c1F)C2` . Output its fraction unbound only.
0.71

Please indicate fraction unbound recorded for `CNC(=O)c1ncn2cc(-c3c(F)ccc(NS(=O)(=O)c4cc(Cl)cnc4OC)c3F)ccc12`
0.22

Report fraction unbound, nothing else, for this compound: `COc1ncc(Cl)cc1S(=O)(=O)Nc1ccc(F)c(-c2ccc3c(-c4ncc[nH]4)n[nH]c3c2F)c1F`
0.04
